Taken from patent US20140235701.

Molecular target: NGF (nerve growth factor) (Homo sapiens, UniProt P01138 P01138:122-241)
Sequence (P01138 122-241, one chain of several): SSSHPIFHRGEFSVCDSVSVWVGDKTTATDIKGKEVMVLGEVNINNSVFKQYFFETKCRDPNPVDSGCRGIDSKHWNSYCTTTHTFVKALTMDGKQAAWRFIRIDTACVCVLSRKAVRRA
Experiment: cell_activity; neurite; TF-1 <0.03
Settings: tags: R&D Systems; chain copies: 2
IC50 reference
Express the result in pM but write the number alone.

Value lookup for IC50; key = GGGUCCUGGAUAAGAGUUUCCGUCUCGUAUCCTGUUACCC (ssRNA, as 82(1) except dT33) [SEQ ID NO: 158] 100

In the following, a different binder is considered.
Value lookup for IC50; key = GGGUCCUGGUUAAGAGUUUCCGUCUCGUAACCUGUUACCC (ssRNA, 2'-OMe G (G8,G34 2'-OH), dA, 2'-F C/U; 5',3' idT) [SEQ ID NO: 79(1)] 289
